Cited source: paper PMC10113271

As shown below, each of these binders has a reported stoichiometry N value.
tested_on: T1, KIX domain of CREB-binding protein (residues 586–672 of mouse CBP) (mouse, UniProt P45481 586-672)
T1 construct: KIX domain, residues 586-672 of mouse CBP; 6xHis-tag and thrombin cleavage site at the N-terminus; source: E. coli BL21(DE3)pLysS, purified (Ni-NTA, gel filtration on Superdex 200 pg)
protocol: ITC; 600 μM MLL solution titrated into the cell containing 45 µM KIX; 30 °C; 20 mM Tris–acetate pH 7.0, 50 mM NaCl; one-site binding model
assay_conditions: both partners purified
Answer using only a numeral; do not append any unit.

Recorded stoichiometry N, per entry:
* GNILPSDIMDFVLKNLPSMQALGESPESY (MLL TAD, residues 2842-2869 of human MLL, with the substitution; Tyr residue attached at the C-terminus for concentration determination by UV absorption; source: E. coli BL21(DE3), purified (Ni-NTA); not shown: His6, N-terminal, kept) [His-tag–GB1–MLL TAD T2857L] | 1.05
* GNILPSDIMDFVLRNTPSMQALGESPESY (MLL TAD, residues 2842-2869 of human MLL, with the substitution; Tyr residue attached at the C-terminus for concentration determination by UV absorption; One of the four mutants used without His-tag–GB1 in ITC as well as in CD; source: E. coli BL21(DE3), purified (Ni-NTA, thrombin digestion on the column, anion exchange); not shown: His6, N-terminal, cleaved) [MLL TAD peptide K2855R without His-tag–GB1] | 0.94
* GNILPSDIMDFVLKNYPSMQALGESPESY (MLL TAD, residues 2842-2869 of human MLL, with the substitution; Tyr residue attached at the C-terminus for concentration determination by UV absorption; source: E. coli BL21(DE3), purified (Ni-NTA); not shown: His6, N-terminal, kept) [His-tag–GB1–MLL TAD T2857Y] | 1.02

Next:
query: Return stoichiometry N (reported value) for this binder: GNILPSDIMDFVLKNTPSMQALGESPESY (MLL TAD, residues 2842-2869 of human MLL; Tyr residue attached at the C-terminus for concentration determination by UV absorption; Used in ITC and immobilised in SPR; also called wild-type MLL TAD; WT; source: E. coli BL21(DE3), purified (Ni-NTA); not shown: His6, N-terminal, kept) [His-tag–GB1–MLL TAD (wild type)]
result: 1.02
